Data credit: ChEMBL document CHEMBL1121934

TARGET_DESC: 5-hydroxytryptamine receptor 2B (Rattus norvegicus, UniProt P30994)
Sequence (P30994 whole entry): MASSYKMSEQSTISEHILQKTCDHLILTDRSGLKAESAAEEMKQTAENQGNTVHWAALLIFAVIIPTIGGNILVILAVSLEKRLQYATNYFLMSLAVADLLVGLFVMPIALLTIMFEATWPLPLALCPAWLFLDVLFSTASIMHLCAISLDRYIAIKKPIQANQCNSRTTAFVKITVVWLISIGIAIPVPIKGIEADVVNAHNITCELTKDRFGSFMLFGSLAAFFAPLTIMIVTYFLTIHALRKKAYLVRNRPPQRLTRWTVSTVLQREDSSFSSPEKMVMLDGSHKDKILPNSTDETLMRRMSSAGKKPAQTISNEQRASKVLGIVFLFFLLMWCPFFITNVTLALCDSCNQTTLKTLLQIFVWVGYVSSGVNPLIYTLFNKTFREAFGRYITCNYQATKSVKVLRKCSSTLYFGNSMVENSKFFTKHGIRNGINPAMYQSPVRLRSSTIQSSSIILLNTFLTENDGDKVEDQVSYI
METHOD_SUMMARY: The binding affinity to 5-hydroxytryptamine 2B receptor of rat fundus
STUDY_CONDITIONS: read-out: pA2 (converted)
log10 Kb: recorded values
Hi team, quick reminder: these entries are log10 of Kb (nM).

{"MOLECULE": "COc1ccc2c(c1)C(CCN(C)C)CN2 (racemic)", "TARGET_DESC": "5-hydroxytryptamine receptor 2B (Rattus norvegicus, UniProt P30994)", "VALUE_OBSERVED": 2.26}

Shift focus to the following entry.
Query CNCCC1CCc2ccccc21 (racemic) yields log10 Kb of 3.63

====

TARGET_DESC: 5-hydroxytryptamine receptor 2B (Rattus norvegicus, UniProt P30994)
METHOD_SUMMARY: The binding affinity to 5-hydroxytryptamine 2B receptor of rat fundus
STUDY_CONDITIONS: read-out: pA2 (converted)
RESULT_TYPE: log10 Kb (log10 of the value in nM)
For clarity, the numbers are log10 values of Kb expressed in nM.

{"COMPOUND": "CNCCc1c[nH]c2ccccc12", "log10 Kb": 3.03}
{"COMPOUND": "CN(C)CCC1CNc2ccccc21 (racemic)", "log10 Kb": 3.32}

Reported log10 Kb of NC1CCc2ccccc2C1 (stereo unspecified) : 3.39

// log10 Kb value for CN(C)CCC1=CCc2ccccc21 : 3.32

Per the records, this compound ( NCCC1CCc2ccccc21 (racemic) ) has log10 Kb equal to 3.40

====

TARGET_DESC: 5-hydroxytryptamine receptor 2B (Rattus norvegicus)
METHOD_SUMMARY: The binding affinity to 5-hydroxytryptamine 2B receptor of rat fundus
STUDY_CONDITIONS: read-out: pA2 (converted)
Checkbox rule: Kb lower than 5 µM = Met; Kb not lower than 5 µM = Not met.

{"COMPOUND": "CN(C)CCCc1ccccc1", "TARGET_DESC": "5-hydroxytryptamine receptor 2B (Rattus norvegicus)", "QUALITATIVE_LABEL": "Not met"}
{"COMPOUND": "CN(C)CCC(=O)c1ccccc1", "TARGET_DESC": "5-hydroxytryptamine receptor 2B (Rattus norvegicus)", "QUALITATIVE_LABEL": "Met"}

Item CN(C)CCC1CCc2ccccc21 (racemic) : Kb beneath 5 µM, strictly?
Met

====

TARGET_DESC: UniProtKB P30994
METHOD_SUMMARY: The binding affinity to 5-hydroxytryptamine 2B receptor of rat fundus
STUDY_CONDITIONS: read-out: pA2 (converted)
Below: a set of entries, each annotated with reported Kb.
Reply with just the number (in nM).

{"MOLECULE": "CNCCC1CCc2ccccc21 (stereo in doubt; 4d)", "U": "nM", "Kb": 2190}
{"MOLECULE": "NCCc1c[nH]c2ccccc12 [TRYPTAMINE]", "U": "nM", "Kb": 537}

Consider CN(C)CCNc1ccccc1 . Its measured Kb is 955
